B1: library; numbered along this chain (parent)
chain: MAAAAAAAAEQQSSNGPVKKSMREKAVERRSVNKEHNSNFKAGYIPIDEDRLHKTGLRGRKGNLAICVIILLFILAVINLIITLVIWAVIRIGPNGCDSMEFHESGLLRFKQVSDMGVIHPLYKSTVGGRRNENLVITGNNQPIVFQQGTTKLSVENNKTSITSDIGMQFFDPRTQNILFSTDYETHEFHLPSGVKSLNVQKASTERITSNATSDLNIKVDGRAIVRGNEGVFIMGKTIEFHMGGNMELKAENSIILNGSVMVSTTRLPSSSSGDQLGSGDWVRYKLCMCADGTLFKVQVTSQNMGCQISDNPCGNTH

variants of: B1; assay: SGCB cell-surface expression functional score (HA stain, bin4 vs bin1, normalised to synonymous) (log10 ratio); higher = more cell-surface SGCB (functional)
Item-by-item account of SGCB cell-surface expression functional score (log10)
Write no unit; give the number alone.

Notebook: K202N , SGCB cell-surface expression functional score (log10) read as -0.53

Notebook: A2T , SGCB cell-surface expression functional score (log10) read as 0.11

Notebook: A7M , SGCB cell-surface expression functional score (log10) read as 0.23

Notebook: L287E , SGCB cell-surface expression functional score (log10) read as -0.2

Notebook: D275E , SGCB cell-surface expression functional score (log10) read as -0.21

Notebook: A251W , SGCB cell-surface expression functional score (log10) read as -1.85

Notebook: F110S , SGCB cell-surface expression functional score (log10) read as -1.18

Notebook: E28K , SGCB cell-surface expression functional score (log10) read as -0.15

Notebook: H242T , SGCB cell-surface expression functional score (log10) read as 0.66

Source: the supplement of paper PMC10266784
